Quick list: pEC50 per entry.
- Test system: T1, T cell receptor alpha/beta on purified primary human T cells (human, UniProt P01848 1-140; P01850 1-176)
- T1 construct: whole, on cells; also called human primary T cells
- T1 TCR alpha (looked up): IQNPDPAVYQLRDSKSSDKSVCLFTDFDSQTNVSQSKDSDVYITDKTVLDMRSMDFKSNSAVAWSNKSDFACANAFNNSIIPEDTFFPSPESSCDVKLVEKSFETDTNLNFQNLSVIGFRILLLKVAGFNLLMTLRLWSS
- T1 TCR beta (looked up): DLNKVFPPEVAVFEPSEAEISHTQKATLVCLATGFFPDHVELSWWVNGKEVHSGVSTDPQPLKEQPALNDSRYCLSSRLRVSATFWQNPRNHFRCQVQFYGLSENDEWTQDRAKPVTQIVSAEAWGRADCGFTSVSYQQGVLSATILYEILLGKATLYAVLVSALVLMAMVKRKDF
- Assay: flow cytometry, purified primary human T cells
- Source text: Periplasmic extracts were screened for cell expressed TCR/CD3 binding using human TCR/CD3 transfected CHO-K1 or HEK293H cells and the respective CHO-K1 or HEK293H reference cell line in a mixed cell line setup. […] Samples were washed, resuspended in FACS Buffer (D-PBS from Gibco, with 10% FBS from Sigma and 0.05% sodium azide from Merck) and then analysed via a BD FACSArray. […] In this gate, 20,000 cells were counted during acquisition. […] For these 2 populations the mean APC value was calculated. […]
Just the number, please; pEC50 means minus log10 of the concentration in mol/L.

binder="T0170056G05 (VHH, Monovalent anti-TCR Nanobody, cluster A; expressed in E. coli as triple Flag, His6-tagged protein; also called T0170PMP056G05; T01700056G05; not shown: C-terminal triple Flag-His6 tag of the E. coli-made monovalent Nanobody) VHH: EVQLVESGGGLVQPGGSLRLSCVASGDVHKINFLGWYRQAPGKEREKVAHISIGDQTDYADSAKGRFTISRDESKNMVYLQMNSLKPEDTAVYFCRAFSRIYPYDYWGQGTLVTVSS" val=7.04

Please look at the following binder next.
Look at this binder and give its reported pEC50. T0170055A02 (VHH, Monovalent anti-TCR Nanobody, cluster A; expressed in E. coli as triple Flag, His6-tagged protein; also called T0170PMP055A02; T01700055A02; not shown: C-terminal triple Flag-His6 tag of the E. coli-made monovalent Nanobody) VHH: EVQLVESGGGLVQPGGSLRLSCAASGDVHKINILGWYRQAPAKEREMVAHITIGDATDYADSAKGRFTISRDEAKNMVYLQMNSLKPEDTAVYFCRAYSRIYPYNYWGQGTLVTVSS
7.04
